Biological target: Luciferin 4-monooxygenase (Photinus pyralis)
Test: firefly luciferase enzyme inhibitors, primary screen, biochemical, luminescence, purified enzyme, 2006 set (AID 1141);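 further: cell-free assay with purified firefly luciferase at 100 ng per well in PBS; test concentration not given here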
Conditions: SteadyGlo luminescence, 30 min, called active from +8 up or from −8 down
Calls of active or inactive are those of the source.
Outcome codes: 1.0 = active, 0.0 = inactive

| structure notation | assigned category |
| --- | --- |
| C=C(C(=O)CC[C@H](OC(C)=O)c1ccc(OCCO)cc1)C(C)C | 0.0 |
| C=CCN1C(=O)[C@]2(O[C@H](CCO)[C@@H]([Si](C)(C)c3ccc(OC)cc3)[C@@H]2C)c2cc(NC(=O)[C@H](C)O)ccc21 | 0.0 |
| CCCN1C(=O)[C@]2(COC(c3ccc(OCCCO)cc3)=N2)Cc2ccccc21 | 0.0 |
| [N-]=[N+]=Nc1ccccc1[C@@H]1OC(c2ccc(OCCCO)cc2)=N[C@]1(CCS(=O)(=O)c1ccccc1)C(=O)N1CCOCC1 | 1.0 |
